- System: dorsal horn neurons
- experiment_description: whole-cell recording of dorsal horn neurons in spinal cord slices from Chung models (Example 4)
- Assay type: cell-based, rat
- test_context: 1 μM; control = 100
Positions of bridges follow the written chain, without caps; N, C: chain ends. No end group written: not given here.

sequence_record	Normalised Input Resistance ΔIR
SCRSRPVEASC (listed as Homo sapiens) [LAT9993 SLoop A9, peptide variant of formula (I)]	−34.0
SCRARPVESSC (listed as Homo sapiens) [LAT9993 SLoop A4, peptide variant of formula (I)]	21.7
CRSRPVESSCSSKFSWDEYEQYKKE (listed as Homo sapiens) [SEQ25+LAT9993 Loop, peptide variant of formula (I)]	−1.7
SCRSRPAESSC (listed as Homo sapiens) [LAT9993 SLoop A7, peptide variant of formula (I)]	6.7
IDPSSEAPGHSCRSRPVESSC (listed as Homo sapiens) [SEQ11+LAT9993 Loop, peptide variant of formula (I)]	14.4
CRSRPVESSCS (disulfide 1-10 (inferred); listed as Homo sapiens) [LAT9993 LoopS, cyclic peptide of formula (I), disulphide bond between the two cysteine residues]	7.2
SCRSRPVESAC (listed as Homo sapiens) [LAT9993 SLoop A10, peptide variant of formula (I)]	0.7

---

Measured Normalised Input Resistance accompanies every entry in the list below.
- System: dorsal horn neurons
- experiment_description: whole-cell recording of dorsal horn neurons in spinal cord slices from Chung models (Example 4)
- Type: cell-based, rat
- test_context: 1 μM; control = 100
value_type: Normalised Input Resistance

> print(dat)
                            sequence.record   measurement.target                   value.type  result
1  CRSRPVESSCSSKFSWDEYEQYKKE (listed as Homo sapiens) [SEQ25+LAT9993 Loop, peptide variant of formula (I)]  dorsal horn neurons  Normalised Input Resistance   101.7
2  SCRSRPAESSC (listed as Homo sapiens) [LAT9993 SLoop A7, peptide variant of formula (I)]  dorsal horn neurons  Normalised Input Resistance    93.3
3  SCRARPVESSC (listed as Homo sapiens) [LAT9993 SLoop A4, peptide variant of formula (I)]  dorsal horn neurons  Normalised Input Resistance    78.3
4  SCRSRPVESAC (listed as Homo sapiens) [LAT9993 SLoop A10, peptide variant of formula (I)]  dorsal horn neurons  Normalised Input Resistance    99.3

---

- System: dorsal horn neurons
- experiment_description: whole-cell recording of dorsal horn neurons in spinal cord slices from Chung models (Example 4)
- Assay type: cell-based, rat
- test_context: 1 μM
value_type: dorsal root afferent-mediated EPSPs / synaptic inputs (words)

> print(dat)
                            sequence.record         result
1  SCRSRPVEASC (listed as Homo sapiens) [LAT9993 SLoop A9, peptide variant of formula (I)]  little effect
2  SCRSRPVESAC (listed as Homo sapiens) [LAT9993 SLoop A10, peptide variant of formula (I)]  little effect

---

- Test system: dorsal horn neurons
- experiment_description: whole-cell recording of dorsal horn neurons in spinal cord slices from Chung models (Example 4)
- Format: cell-based, rat
- test_context: 1 μM; all cells
- Source text: Adult male Sprague-Dawley rats, weighing 220-250 g (aged/weeks and older) at the time of surgery, were used in this study. […] The animals were housed in groups of 4 in an air-conditioned room on a 12-hour light/dark cycle. […] The baseline paw withdrawal threshold (PWT) was examined using a series of graduated von Frey hairs (see below) for 3 consecutive days before surgery and re-assessed on the 6th to 8th day after surgery and on the 12th to 14th day after surgery before drug dosing. […]
Measured Input Resistance, mean in presence of peptide accompanies every entry in the list below.
value_type: Input Resistance, mean in presence of peptide (MΩ)

> print(dat)
                            sequence.record  readout.number
1  SCRARPVESSC (listed as Homo sapiens) [LAT9993 SLoop A4, peptide variant of formula (I)]           294.6
2  SCRSRPVESAC (listed as Homo sapiens) [LAT9993 SLoop A10, peptide variant of formula (I)]           452.3
3  IDPSSEAPGHSCRSRPVESSC (listed as Homo sapiens) [SEQ11+LAT9993 Loop, peptide variant of formula (I)]           338.1
4  CRSRPVESSCSSKFSWDEYEQYKKE (listed as Homo sapiens) [SEQ25+LAT9993 Loop, peptide variant of formula (I)]           339.6
